# assay target: cynomolgus PILRA, ectopically expressed on 293 cells (cynomolgus monkey)
# Sequence (chain, as listed by the source): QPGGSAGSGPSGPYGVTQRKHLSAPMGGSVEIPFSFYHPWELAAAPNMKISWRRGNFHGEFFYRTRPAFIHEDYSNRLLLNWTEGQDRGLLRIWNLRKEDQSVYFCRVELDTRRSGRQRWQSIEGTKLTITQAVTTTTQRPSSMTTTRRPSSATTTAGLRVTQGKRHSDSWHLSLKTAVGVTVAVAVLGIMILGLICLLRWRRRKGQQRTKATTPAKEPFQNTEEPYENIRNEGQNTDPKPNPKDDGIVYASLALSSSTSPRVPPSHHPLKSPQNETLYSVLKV
# procedure details: flow cytometry, 293 cells expressing target

| binder | EC50 (µg/mL) |
| --- | --- |
| D8 (antibody, V domains shown, second hybridoma campaign; same VH/VL as D6) VH: EVQLQQSGPELVKPGASVKMSCKASGYTFTDYYMDWVKQSHGESFEWIGRVNPYTGDSSYNQKFKGKATLTVDKSSNTAYLEFNSLTSEGSAVYYCARSDGYHYKYAMDYWGQGTSVTVSS VL: DVVMTQTPLSLPVSLGDQASISCRSSQSLVHSTGNTYLHWYLQKPGQSPNLLIYKISNRFSGVPDRFSGSGSGTDFTLKISRVEAEDLGVYFCSQSTHVPYTFGGGTKLEIK | 0.1 |
| A15 (antibody, V domains shown, phage campaign) VH: QVQLVQSGAEVKKPGASVKVSCKASGGTFSNYGLTWVRQAPGQGLEWMGWINLNSGGTYYAQKFQGRVTMTRDTSTSTVYMELSSLRSEDTAVYYCARDRYSSGWYEGDAFDIWGQGTMVTVSS VL: DIQMTQSPSSLSASVGDRVTITCRASQGISNWLAWYQQKPGKAPKLLIYAASSLQSGVPSRFSGSGSGTDFTLTISSLQPEDFATYYCQQSYSTPWTFGPGTKVDIK | 11.1 |
| E2 (antibody, V domains shown, second hybridoma campaign) VH: EVQLQESGPSLVKPSQTLSLTCSVTGDSITSGYWNWIRKFPGDKLEYMGYISYTGTTYYNPSLKSRVSITRDTSKNQYYLQLHSVTTEDTATYYCARYPYGNFPFDYWGQGTTLTVSS VL: SIVMTQTPKFLLVSAGDRVTITCKASQSVRNDVAWYQQRPGQSPKLLIFYASSRYIGAPDRFTGSGYGTDFTFTISTVQAEDLAVYFCQQDYSSPYTFGGGTTLEIK | 92 |
| E15 (antibody, V domains shown, B-cell cloning campaign (mice)) VH: QVQLQQSGAELVKPGASVKLSCKASGNTFTIYDINWVRQRPEQGLEWIGWIFPGDGSTKYNGKFKGKATLTTDKSSSTAYMQLSRLTSEDSAVYFCARRAHYYGSSFDYWGQGTTLTVSS VL: DIQMTQSSSYLSVSLGGRVTITCKASDHINNWLAWYQQKPGNGPRLLISGAISLEIGVPSRFSGSGSGKEYTLSITSLQTEDVATYYCQQYWSPPWTFGGGTKLEIK | 14.6 |
| A12 (antibody, V domains shown, phage campaign) VH: QVQLVQSGAEVKKPGASVKVSCKASGYNFNDYYIHWVRQAPGQGLEWMGWISAYNGNTNYAQKLQGRVTMTRDTSTSTVYMELSSLRSEDTAVYYCARDGWYCSSSSCYTGSDYWGQGTLVTVSS VL: DIQMTQSPSSLSASVGDRVTITCRASQSISNYLNWYQQKPGKAPKLLIYGASTLHSGVPSRFSGSGSGTDFTLTISSLQPEDFATYYCQQSYSTPFTFGPGTKVDIK | 8.6 |

This collection of values is drawn from patent US20240425587A1.
